Tested on: Solanum lycopersicum
PROCEDURE_TEXT: Inhibition of hypocotyl length of Solanum lycopersicum cv. Tres Cantos (tomato) at 0.1 mM or 1 mM after 5 days relative to untreated control
Assay type: functional
Would you kindly list inhibition (INH) for each of these compounds?

Data request: So what does the record say about inhibition (INH) for C=C1C(=O)O[C@H]2[C@H]1CCC(=C)[C@@H]1C[C@@H](O)C(=C)[C@@]12O [5ALPHA-HYDROXYISOZALUZANIN C] ?
Data returned: >40%

Data request: Moving on to CC1=CC(=O)C2=C(C)C[C@H](O)[C@H]3[C@H](OC(=O)[C@@H]3C)[C@@H]12 [8ALPHA-HYDROXYACHILLIN]
Data returned: <20%

Data request: Moving on to C=C1[C@@H]2[C@H]3OC(=O)C(=C)[C@@H]3CCC(=C)[C@@H]2C[C@H]1O
Data returned: >40%

Data request: Moving on to C=C1CC[C@H]2C(=C)CC[C@@H]3[C@H](OC(=O)[C@H]3CO)[C@@H]12
Data returned: >40%

Data request: Moving on to CC(=O)O[C@H]1CC(C)=C2C(=O)C=C(C)[C@@H]2[C@H]2OC(=O)[C@H](C)[C@H]21
Data returned: <20%

Data request: Moving on to COc1nc(C)nc(NC(=O)NS(=O)(=O)c2ccccc2OCCCl)n1
Data returned: >40%

Data request: Moving on to C=C1C(=O)C[C@H]2C(=C)CC[C@H]3C(=C)C(=O)O[C@@H]3[C@@H]12 [DEHYDROZALUZANIN C]
Data returned: >40%

====

Test system: Lactuca sativa
PROCEDURE_TEXT: Inhibition of hypocotyl length of Lactuca sativa cv. Roman (lettuce) at 0.1 mM or 1 mM after 5 days relative to untreated control
Type: functional
Would you kindly list inhibition (INH) for each of these compounds?
Use % as the unit, but write only the number.

Data request: I'm curious: which inhibition (INH) was measured for C=C1[C@@H]2[C@H]3OC(=O)C(=C)[C@@H]3CCC(=C)[C@@H]2C[C@@H]1O [ZALUZANIN C] tested on Lactuca sativa?
Data returned: 20

Data request: Moving on to C=C1C(=O)O[C@H]2[C@H]1CCC(=C)[C@]1(O)C[C@@H](O)C(=C)[C@]21O
Data returned: 20

====

System: Lactuca sativa
PROCEDURE_TEXT: Stimulation of germination of Lactuca sativa cv. Roman (lettuce) at 0.1 mM or 1 mM after 5 days relative to untreated control
Assay type: functional
Calls of active or inactive are those of the source. No cut-off for these calls is given here.
READOUT_LABEL: Activity

Below, each entry is followed by its recorded Activity result.
C=C1CC[C@H]2C(=C)CC[C@H]3C(=C)C(=O)O[C@@H]3[C@@H]12 [DEHYDROCOSTUSLACTONE]: 20%
C=C1CC[C@H]2[C@H](CO)C(=O)O[C@@H]2[C@@]2(O)C(=C)[C@H](O)C[C@@H]12: 20%
C=C1C(=O)O[C@H]2[C@H]1CCC(=C)[C@]1(O)C[C@@H](O)C(=C)[C@]21O: inactive
C=C1C(=O)O[C@H]2[C@H]1C[C@@H](O)C(=C)[C@@H]1C[C@@H](O)C(=C)[C@@]12O: inactive
CC1=CC(=O)C2=C(C)C[C@H](O)[C@H]3[C@H](OC(=O)[C@@H]3C)[C@@H]12 [8ALPHA-HYDROXYACHILLIN]: inactive
CC(=O)O[C@H]1CC(C)=C2C(=O)C=C(C)[C@@H]2[C@H]2OC(=O)[C@H](C)[C@H]21: inactive

# next compound below
Data request: So what does the record say about Activity for C=C1[C@@H]2[C@H]3OC(=O)C(=C)[C@@H]3CCC(=C)[C@@H]2C[C@@H]1O ?
Data returned: inactive
